assay protocol: Solubility of compounds in 50 mM phosphate buffer pH 7.4 by HPLC
Format: physicochemical
condition notes: 50 mM potassium phosphate buffer pH 7.40, 16 hr at ~25° C., 1600 μM incubation concentration
property name: Measured Solubility in pH 7.4 phosphate buffer (mg/ml)

1) COC(=O)N(CC1(N)CC1)C1(c2ccc(F)c(C(F)(F)F)c2)CC1 [[3]] = 0.5599
2) CCOC(=O)N(C[C@@H]1CCCN1C)C1(c2ccc(F)c(C(F)(F)F)c2)CC1 [[35]] = 0.5679
3) COC(=O)N(CC(C)(C)N)C1(c2cc(C(F)(F)F)c(F)cn2)CC1 [[17]] = 0.5636

a = COC(=O)N(CCN(C)C)C1(c2ccc(F)c(C(F)(F)F)c2)CC1 [[1]]
b = CS(=O)(=O)N(C[C@@H]1CCCN1)C1(c2ccc(F)c(C(F)(F)F)c2)CC1 [[36]]
Which shows the larger Measured Solubility in pH 7.4 phosphate buffer (mg/ml) value: a or b ? # answer = label of selected item
a

* * *

tested on: erythrocyte KCa3.1 channels (Homo sapiens (Human), UniProt O15554)
assay protocol: Erythrocyte KCa3.1 assay
condition notes: human erythrocytes, A23187-activated, 37° C.; read-out: RBC K (in vitro) Human IC50
pIC50: −log10 of the molar value.
property name: pIC50

Look over these answered cases.
1. COC(=O)N(CCN(C)C)C1(c2ccc(F)c(C(F)(F)F)c2)CC1 [[1]] = 6.48
2. COC(=O)N(CC1CCN1)C1(c2ccc(F)c(OC(F)(F)F)c2)CC1 (centres unmarked) [[32]] = 6.57
3. Fc1ccc(C2(N(CC3CC3)C3CNC3)CC2)cc1C(F)(F)F [[6]] = 6.72
4. COC(=O)N(CC1CCN1)C1(c2ccc(F)c(C(F)(F)F)c2)CC1 (centres unmarked) [[26]] = 6.68
5. CS(=O)(=O)N(C[C@@H]1CCCN1)C1(c2ccc(F)c(C(F)(F)F)c2)CC1 [[36]] = 6.49

A = CCOC(=O)N(C[C@@H]1CCCN1C)C1(c2ccc(F)c(C(F)(F)F)c2)CC1 [[35]]
B = O=C(OCC1CC1)N(C[C@@H]1CCCN1)C1(c2ccc(F)c(C(F)(F)F)c2)CC1 [[48]]
C = CC(C)(N)CN(C1CCC1)C1(c2cccc(C(F)(F)F)c2)CC1 [[18]]
D = N[C@H]1CCC[C@@H]1NC1(c2ccc(F)c(C(F)(F)F)c2)CC1 [[51]]
hey, can you rank those molecules up there by pIC50? biggest number first please Provide the labels, sequenced as the question asks.
C, A, B, D

I = CN1CCC[C@H]1CN(C1(c2ccc(F)c(C(F)(F)F)c2)CC1)S(C)(=O)=O [[37]]
II = CC(C)(N)CN(C(=O)C1CC1)C1(c2ccc(F)c(C(F)(F)F)c2)CC1 [[9]]
III = COC(=O)N(CC(C)(C)N)C1(c2ccc(F)c(C(F)(F)F)c2)CC1 [[2]]
IV = CC(C)(N)CN(CC1CC1)C1(c2ccc(F)c(C(F)(F)F)c2)CC1 [[8]]
V = CCOC(=O)N(CC(C)(C)N)C1(c2ccc(F)c(C(F)(F)F)c2)CC1 [[19]]
hey, can you rank those molecules up there by pIC50? biggest number first please Provide the labels, sequenced as the question asks.
IV, V, III, I, II
(IV: 7.85, V: 7.33, III: 7.07, I: 6.85, II: 6.46)

Cited source for all entries: patent US12006289B2
